target: plasma purified human complement protein C3 (human) (UniProt P01024); experiment: cell-based or functional assay
Sequence (P01024 23-667, chain 1 of 2): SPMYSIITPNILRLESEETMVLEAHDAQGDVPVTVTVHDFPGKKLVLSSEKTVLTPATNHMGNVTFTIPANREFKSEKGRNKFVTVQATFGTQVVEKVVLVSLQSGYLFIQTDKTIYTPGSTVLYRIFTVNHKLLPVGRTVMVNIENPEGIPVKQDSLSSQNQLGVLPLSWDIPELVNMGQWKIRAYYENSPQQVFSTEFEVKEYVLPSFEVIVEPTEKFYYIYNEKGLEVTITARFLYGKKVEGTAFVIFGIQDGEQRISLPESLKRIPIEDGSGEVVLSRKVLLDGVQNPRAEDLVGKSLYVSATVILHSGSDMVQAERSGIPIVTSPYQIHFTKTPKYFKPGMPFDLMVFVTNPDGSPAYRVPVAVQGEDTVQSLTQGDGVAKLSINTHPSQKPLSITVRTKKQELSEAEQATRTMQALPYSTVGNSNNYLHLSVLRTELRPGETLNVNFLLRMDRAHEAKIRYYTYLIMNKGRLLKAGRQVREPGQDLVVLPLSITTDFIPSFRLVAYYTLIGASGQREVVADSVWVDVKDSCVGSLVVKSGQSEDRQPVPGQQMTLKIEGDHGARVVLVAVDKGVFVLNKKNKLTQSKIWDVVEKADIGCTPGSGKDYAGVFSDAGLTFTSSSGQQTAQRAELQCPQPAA
Sequence (P01024 672-1663, chain 2 of 2): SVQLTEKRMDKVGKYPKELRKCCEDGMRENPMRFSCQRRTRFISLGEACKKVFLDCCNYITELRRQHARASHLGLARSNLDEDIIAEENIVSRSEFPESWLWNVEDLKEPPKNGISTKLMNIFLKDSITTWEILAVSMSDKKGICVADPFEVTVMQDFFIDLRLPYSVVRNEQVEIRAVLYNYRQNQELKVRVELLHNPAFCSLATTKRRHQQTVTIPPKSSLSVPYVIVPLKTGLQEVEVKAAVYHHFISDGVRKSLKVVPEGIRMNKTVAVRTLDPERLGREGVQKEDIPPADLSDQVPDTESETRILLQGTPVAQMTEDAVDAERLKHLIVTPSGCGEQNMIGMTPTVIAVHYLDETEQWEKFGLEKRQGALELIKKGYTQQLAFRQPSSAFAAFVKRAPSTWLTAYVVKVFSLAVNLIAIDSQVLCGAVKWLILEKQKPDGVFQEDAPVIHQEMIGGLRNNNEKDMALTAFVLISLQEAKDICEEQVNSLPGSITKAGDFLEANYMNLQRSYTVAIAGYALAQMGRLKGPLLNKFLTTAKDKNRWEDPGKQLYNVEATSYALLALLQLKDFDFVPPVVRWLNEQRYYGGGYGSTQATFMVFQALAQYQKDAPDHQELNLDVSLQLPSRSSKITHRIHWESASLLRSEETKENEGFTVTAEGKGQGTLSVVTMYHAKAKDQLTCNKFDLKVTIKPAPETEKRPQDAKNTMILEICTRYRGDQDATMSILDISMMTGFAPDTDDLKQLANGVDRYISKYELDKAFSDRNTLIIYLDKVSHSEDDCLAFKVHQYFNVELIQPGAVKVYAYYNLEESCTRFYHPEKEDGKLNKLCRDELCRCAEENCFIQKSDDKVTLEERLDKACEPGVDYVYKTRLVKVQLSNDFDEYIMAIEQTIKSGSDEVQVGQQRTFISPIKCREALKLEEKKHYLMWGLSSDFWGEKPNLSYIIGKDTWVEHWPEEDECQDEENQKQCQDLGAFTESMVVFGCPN
readout.name: log10 EC50 of hC3 cleavage (log10 of the value in nM)

>  <binder>
MTSP-1 Q38H/I41S/D60bT/F60eT/Y60gW/ins97aV/F97D/T98P/F99L/C122S/G151H/Q175L/Q192V (enzyme) VVGGTDADEGEWPWQVSLHALGHGHSCGASLISPNWLVSAAHCYIDTRGTRWSDPTQWTAFLGLHDQSQRSAPGVQERRLKRIISHPFFNDDVPLDYDIALLELEKPAEYSSMVRPISLPDASHVFPAGKAIWVTGWGHTQYGGTHALILQKGEIRVINQTTCENLLPQLITPRMMCVGFLSGGVDSCVGDSGGPLSSVEADGRIFQAGVVSWGDGCAQRNKPGVYTRLPLFRDWIKENTGV

>  <log10 EC50 of hC3 cleavage>
0.74

$$$$
>  <binder>
MTSP-1 I41R/Y59F/ins97aE/F97T/T98G/F99L/C122S/L153Q/Q175L/Q192E (enzyme) VVGGTDADEGEWPWQVSLHALGQGHRCGASLISPNWLVSAAHCFIDDRGFRYSDPTQWTAFLGLHDQSQRSAPGVQERRLKRIISHPFFNDTEGLDYDIALLELEKPAEYSSMVRPISLPDASHVFPAGKAIWVTGWGHTQYGGTGAQILQKGEIRVINQTTCENLLPQLITPRMMCVGFLSGGVDSCEGDSGGPLSSVEADGRIFQAGVVSWGDGCAQRNKPGVYTRLPLFRDWIKENTGV

>  <log10 EC50 of hC3 cleavage>
2.40

$$$$
>  <binder>
MTSP-1 Q38T/I41S/D60bV/F60eR/ins97aV/F97D/T98P/F99L/C122S/G151N/Q175R/Q192V (enzyme) VVGGTDADEGEWPWQVSLHALGTGHSCGASLISPNWLVSAAHCYIDVRGRRYSDPTQWTAFLGLHDQSQRSAPGVQERRLKRIISHPFFNDDVPLDYDIALLELEKPAEYSSMVRPISLPDASHVFPAGKAIWVTGWGHTQYGGTNALILQKGEIRVINQTTCENLLPQRITPRMMCVGFLSGGVDSCVGDSGGPLSSVEADGRIFQAGVVSWGDGCAQRNKPGVYTRLPLFRDWIKENTGV

>  <log10 EC50 of hC3 cleavage>
1.20

$$$$
>  <binder>
MTSP-1 Q38H/I41A/D60bW/ins97aV/F97D/T98P/F99L/C122S/I136M/Q192G/D217N (enzyme) VVGGTDADEGEWPWQVSLHALGHGHACGASLISPNWLVSAAHCYIDWRGFRYSDPTQWTAFLGLHDQSQRSAPGVQERRLKRIISHPFFNDDVPLDYDIALLELEKPAEYSSMVRPISLPDASHVFPAGKAMWVTGWGHTQYGGTGALILQKGEIRVINQTTCENLLPQQITPRMMCVGFLSGGVDSCGGDSGGPLSSVEADGRIFQAGVVSWGNGCAQRNKPGVYTRLPLFRDWIKENTGV

>  <log10 EC50 of hC3 cleavage>
0.49

$$$$
>  <binder>
MTSP-1 Q38H/I41S/D60bT/F60eH/Y60gF/ins97aV/F97D/T98P/F99L/C122S/H143R/G151N/Q175L/Q192S (enzyme) VVGGTDADEGEWPWQVSLHALGHGHSCGASLISPNWLVSAAHCYIDTRGHRFSDPTQWTAFLGLHDQSQRSAPGVQERRLKRIISHPFFNDDVPLDYDIALLELEKPAEYSSMVRPISLPDASHVFPAGKAIWVTGWGRTQYGGTNALILQKGEIRVINQTTCENLLPQLITPRMMCVGFLSGGVDSCSGDSGGPLSSVEADGRIFQAGVVSWGDGCAQRNKPGVYTRLPLFRDWIKENTGV

>  <log10 EC50 of hC3 cleavage>
1.32

$$$$
>  <binder>
MTSP-1 Q38H/I41S/D60bT/F60eS/Y60gW/D96K/F97G/ins97aV/T98P/F99L/C122S/G151H/Q175L (enzyme) VVGGTDADEGEWPWQVSLHALGHGHSCGASLISPNWLVSAAHCYIDTRGSRWSDPTQWTAFLGLHDQSQRSAPGVQERRLKRIISHPFFNKGVPLDYDIALLELEKPAEYSSMVRPISLPDASHVFPAGKAIWVTGWGHTQYGGTHALILQKGEIRVINQTTCENLLPQLITPRMMCVGFLSGGVDSCQGDSGGPLSSVEADGRIFQAGVVSWGDGCAQRNKPGVYTRLPLFRDWIKENTGV

>  <log10 EC50 of hC3 cleavage>
0.16

$$$$
>  <binder>
MTSP-1 F97E/F99L/C122S/D217I/K224N (enzyme) VVGGTDADEGEWPWQVSLHALGQGHICGASLISPNWLVSAAHCYIDDRGFRYSDPTQWTAFLGLHDQSQRSAPGVQERRLKRIISHPFFNDETLDYDIALLELEKPAEYSSMVRPISLPDASHVFPAGKAIWVTGWGHTQYGGTGALILQKGEIRVINQTTCENLLPQQITPRMMCVGFLSGGVDSCQGDSGGPLSSVEADGRIFQAGVVSWGIGCAQRNNPGVYTRLPLFRDWIKENTGV

>  <log10 EC50 of hC3 cleavage>
0.80

$$$$
>  <binder>
MTSP-1 Q38Y/I41S/D60bR/F60eE/Y60gF/ins97aE/F97T/T98G/F99L/C122S/Q175L/Q192V (enzyme) VVGGTDADEGEWPWQVSLHALGYGHSCGASLISPNWLVSAAHCYIDRRGERFSDPTQWTAFLGLHDQSQRSAPGVQERRLKRIISHPFFNDTEGLDYDIALLELEKPAEYSSMVRPISLPDASHVFPAGKAIWVTGWGHTQYGGTGALILQKGEIRVINQTTCENLLPQLITPRMMCVGFLSGGVDSCVGDSGGPLSSVEADGRIFQAGVVSWGDGCAQRNKPGVYTRLPLFRDWIKENTGV

>  <log10 EC50 of hC3 cleavage>
1.40

$$$$
>  <binder>
MTSP-1 Q38H/I41S/D60bS/ins97aV/F97D/T98P/F99L/M117L/C122S/I136T/Q192G/D217I (enzyme) VVGGTDADEGEWPWQVSLHALGHGHSCGASLISPNWLVSAAHCYIDSRGFRYSDPTQWTAFLGLHDQSQRSAPGVQERRLKRIISHPFFNDDVPLDYDIALLELEKPAEYSSLVRPISLPDASHVFPAGKATWVTGWGHTQYGGTGALILQKGEIRVINQTTCENLLPQQITPRMMCVGFLSGGVDSCGGDSGGPLSSVEADGRIFQAGVVSWGIGCAQRNKPGVYTRLPLFRDWIKENTGV

>  <log10 EC50 of hC3 cleavage>
0.39

$$$$
>  <binder>
MTSP-1 ins97aY/F97G/T98V/C122S/Q175M/Q192S/D217V (enzyme) VVGGTDADEGEWPWQVSLHALGQGHICGASLISPNWLVSAAHCYIDDRGFRYSDPTQWTAFLGLHDQSQRSAPGVQERRLKRIISHPFFNDGYVFDYDIALLELEKPAEYSSMVRPISLPDASHVFPAGKAIWVTGWGHTQYGGTGALILQKGEIRVINQTTCENLLPQMITPRMMCVGFLSGGVDSCSGDSGGPLSSVEADGRIFQAGVVSWGVGCAQRNKPGVYTRLPLFRDWIKENTGV

>  <log10 EC50 of hC3 cleavage>
0.38

$$$$
